Test system: Past.multo. A 723
Test: agar serial dilution test
Type: cell-based, Pasteurella multocida
Conditions: Pasteurella multocida; agar serial dilution, 24 hours, 37° C.; read-out: minimal inhibitory concentration (MIC)
Property Label: MIC (µg/mL)

• COCc1noc(CC(=O)N[C@@H]2C(=O)N3C(C(=O)O)=C(COC(C)=O)CS[C@H]23)n1 = 1
• Cc1nc(CC(=O)N[C@@H]2C(=O)N3C(C(=O)O)=C(CN=[N+]=[N-])CS[C@H]23)no1 = 10
• CC1=C(C(=O)O)N2C(=O)[C@@H](NC(=O)Cc3nc(Cc4ccccc4)no3)[C@H]2SC1 = 25
• CC(=O)OCC1=C(C(=O)O)N2C(=O)[C@@H](NC(=O)Cc3nc(-c4c(Cl)cccc4Cl)no3)[C@H]2SC1 [Example 11C] = 6
• CC(=O)OCC1=C(C(=O)O)N2C(=O)[C@@H](NC(=O)Cc3nc(-c4c(C)cc(C)cc4C)no3)[C@H]2SC1 = 50

----------
Quick reference: MIC of the listed items.
System: Staph.aureus A 2000
Assay: agar serial dilution test
Type: cell-based, Staphylococcus aureus
Settings: Staphylococcus aureus, A2000, 24 h, agar serial dilution, 24 hours, 37° C.; read-out: minimal inhibitory concentration (MIC)
Property Label: MIC (µg/mL)

- CC(=O)OCC1=C(C(=O)O)N2C(=O)[C@@H](NC(=O)Cc3nc(-c4c(Cl)cccc4Cl)no3)[C@H]2SC1 [Example 11C]: 0.5
- Cc1nc(CC(=O)N[C@@H]2C(=O)N3[C@@H]2SC(C)(C)[C@@H]3C(=O)O)no1: 1.5
- CC1=C(C(=O)O)N2C(=O)[C@@H](NC(=O)Cc3nc(C)no3)[C@H]2SC1 [Example 11F]: 50
- CC1(C)S[C@@H]2[C@H](NC(=O)[C@H](N)c3ccccc3)C(=O)N2[C@H]1C(=O)O [Ampicillin, reference compound]: 1.5
- CCc1noc(CC(=O)N[C@@H]2C(=O)N3C(C(=O)O)=C(COC(C)=O)CS[C@H]23)n1 [Example 11L]: 1
- CC1=C(C(=O)O)N2C(=O)[C@@H](NC(=O)Cc3nc(-c4c(Cl)cccc4Cl)no3)[C@H]2SC1 [Example 11E]: 0.75
- Cc1noc(CC(=O)N[C@@H]2C(=O)N3C(C(=O)O)=C(CSc4nnnn4C)CS[C@H]23)n1: 0.75

----------
System: Dipl.pneum. L 54
Test: agar serial dilution test
Format: cell-based, Diplococcus pneumoniae
Conditions: Streptococcus pneumoniae; agar serial dilution, 24 hours, 37° C.; read-out: minimal inhibitory concentration (MIC)
Property Label: MIC (mg/L)

• COC(=O)C(C(=O)N[C@@H]1C(=O)N2C(C(=O)O)=C(COC(C)=O)CS[C@H]12)c1nc(C)no1 (stereo partly shown) = 12.5
• COCc1noc(CC(=O)N[C@@H]2C(=O)N3[C@@H]2SC(C)(C)[C@@H]3C(=O)O)n1 = 0.25
• Cc1noc(CC(=O)N[C@@H]2C(=O)N3C(C(=O)O)=C(CSc4nnnn4C)CS[C@H]23)n1 = 0.5
• CCc1noc(CC(=O)N[C@@H]2C(=O)N3[C@@H]2SC(C)(C)[C@@H]3C(=O)O)n1 [Example 11G] = 0.25

----------
System: Pseud.aerug. H 10
Assay: agar serial dilution test
Format: cell-based
Conditions: agar serial dilution, 24 hours, 37° C.; read-out: minimal inhibitory concentration (MIC)
Below, each of the molecules is paired with its reported MIC value.
Property Label: MIC

* CC(=O)OCC1=C(C(=O)O)N2C(=O)[C@@H](NC(=O)Cc3nc(-c4c(Cl)cccc4Cl)no3)[C@H]2SC1 [Example 11C] | > 100 µg/mL
* CCc1nc(CC(=O)N[C@@H]2C(=O)N3C(C(=O)O)=C(CSc4nnc(C)s4)CS[C@H]23)no1 | 100 µg/mL
* CCc1noc(CC(=O)N[C@@H]2C(=O)N3C(C(=O)O)=C(COC(C)=O)CS[C@H]23)n1 [Example 11L] | > 100 µg/mL
* CC1=C(C(=O)O)N2C(=O)[C@@H](NC(=O)Cc3nc(C)no3)[C@H]2SC1 [Example 11F] | > 100 µg/mL
* CCc1noc(CC(=O)N[C@@H]2C(=O)N3[C@@H]2SC(C)(C)[C@@H]3C(=O)O)n1 [Example 11G] | > 100 µg/mL
